test system: L. donovani; assay: Effect of leishmaniasis drugs on the number of pathogens in liver and spleen of rats infected with L. donovani (Examples 39, 40); assay type: in vivo; details: 3 week period of therapy; procedure as in example 39 (orally 5 × 20 mg/kg/week)
# Pathogens per spleen (in millions) annotations
Kindly answer with a numeric value in millions, unit omitted.

>  <compound>
CCCCCCCCCCCCCCCCCCOCC(COP(=O)([O-])OCC[N+](C)(C)C)OC (racemic) [Et18OCH3, reference compound]

>  <Pathogens per spleen (in millions)>
6.5

$$$$
>  <compound>
CCCCCCCC/C=C\CCCCCCCCOP(=O)([O-])OCC[N+](C)(C)CC

>  <Pathogens per spleen (in millions)>
0.03

$$$$
>  <compound>
CCCCCCCCCCCCCCCCCCOP(=O)([O-])OCC[N+](C)(C)C

>  <Pathogens per spleen (in millions)>
0.01

$$$$

Proceeding to the next compound to report its Pathogens per spleen (in millions).
Problem: Form entry - test system: L. donovani; read-out: Pathogens per spleen (in millions); compound: `CCCCCCCCCCCCCCCCOP(=O)([O-])OCC[N+](C)(C)C`
Solution: 0.01
